These measurements were taken from patent US10344026B2.

molecular target: K-Ras G12D (Homo sapiens, UniProt P01116, G12D); construct: expressed in transfected cells; host or cells: 293H cells; assay: G-LISA Ras activation, 293H cells transfected with G12D mutant; assay type: cell-based; conditions: compound 1 hour
Sequence (P01116 whole entry G12D): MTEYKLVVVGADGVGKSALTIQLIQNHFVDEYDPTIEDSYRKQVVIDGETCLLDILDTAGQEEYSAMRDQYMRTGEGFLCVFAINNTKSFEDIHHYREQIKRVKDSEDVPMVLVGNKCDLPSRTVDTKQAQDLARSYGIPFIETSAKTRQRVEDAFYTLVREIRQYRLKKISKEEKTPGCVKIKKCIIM
endpointLabel: IC50 (µM)
The figure you give is taken to be in µM; do not add the unit.

Use these answered entries as a reference point.
CCc1nc(C)c(C(=O)Nc2nc(-c3ccc4c(c3)CCC(=O)N4)cs2)o1 = 10.2
Cc1cc(C(=O)Nc2nc(-c3ccc4c(c3)CCC(=O)N4)cs2)n(C)n1 = 4.6
COc1cccc(CN2C(=O)CCc3cc(-c4csc(NC(=O)c5oc(C)nc5C)n4)ccc32)c1 = 13.9
Cc1nc(C)c(C(=O)Nc2nc(-c3ccc4c(c3)CCC(=O)N4Cc3cccnc3)cs2)s1 = 10.4
Cc1nc(C)c(C(=O)Nc2nc(-c3ccc4c(c3)CCC(=O)N4)cs2)s1 = 9.3
Cc1nn(C(C)C)cc1C(=O)Nc1nc(-c2ccc3c(c2)CCC(=O)N3Cc2cccnc2)cs1 = 2.5
Cc1nc(C)c(C(=O)Nc2nc(-c3ccc4c(c3)CCC(=O)N4Cc3cccc4c3OCO4)cs2)o1 = 19.2

Now look at this entry.
**Query** Please tell me the measured IC50 for CCn1nc(C2CC2)cc1C(=O)Nc1nc(-c2ccc3c(c2)CCC(=O)N3)cs1 ; system: K-Ras G12D (Homo sapiens, UniProt P01116, G12D).
**Result** 8.8

---

IC50 values, listed per item
System: HCC827 (K-Ras wild type cell line)
Experiment: Viability assay (CellTiterBlue, 72 hr) HCC827
Assay type: cell-based
Settings: Homo sapiens, GI50, CellTiterBlue, HCC827 K-Ras wild-type
Protocol: Viability assays were performed on exemplary compounds and Table 2 below lists exemplary results for selected compounds tested on K-Ras wild type cell lines (Ishikawa, U87-MG, HCC827, and A375) and various K-Ras mutant cell lines (Panc1-G12D; Panc10.05-G12D; HCT116-G31D). […] Cells are counted and seeded at 1000 cells/36 ul medium/well into 384-well microplates. […] After 3 hr, fluorescence (Ex550/Em590) is determined on the Victor Plate Reader (Perkin Elmer). […]
Please state the figure in µM; there is no need to write the unit.

**Query** Supply recorded IC50 for Cc1nc(C)c(C(=O)Nc2nc(-c3ccc4c(c3)CCC(=O)N4CC3CCCNC3)cs2)o1 (stereo not shown) here.
**Result** 15

**Query** // fetch IC50 given entry Cc1nc(C)c(C(=O)Nc2nc(-c3ccc4c(c3)CCC(=O)N4Cc3cccc4cnccc34)cs2)o1
**Result** 6

---

test system: HCC827 (K-Ras wild type cell line); assay: Viability assay (CellTiterBlue, 72 hr) HCC827; type: cell-based; conditions: Homo sapiens, GI50, CellTiterBlue, HCC827 K-Ras wild-type
# IC50 values compiled below
Could you give me the number in µM? Just the number is fine.

Consider the following illustrative entries.
CCc1nc(C)c(C(=O)Nc2nc(-c3ccc4c(c3)CCC(=O)N4CCOC)cs2)o1 = 4
Cc1nc(C)c(C(=O)Nc2nc(-c3ccc4c(c3)CCC(=O)N4Cc3cccc4c3OCO4)cs2)o1 = 12
Cc1nc(C)c(C(=O)Nc2nc(-c3ccc4c(c3)CCC(=O)N4CC3CC3)cs2)o1 = 5

**Query** Check HCC827 (K-Ras wild type cell line) data and give IC50 for COCCN1C(=O)CCc2cc(-c3csc(NC(=O)c4oc(C)nc4C)n3)ccc21 .
**Result** 5

**Query** Supply IC50 measured with HCC827 (K-Ras wild type cell line) for Cc1nc(C)c(C(=O)Nc2nc(-c3ccc4c(c3)CCC(=O)N4Cc3cccc(N)c3)cs2)o1 .
**Result** 4

**Query** Find the measured IC50 of Cc1nc(C2CCOC2)sc1C(=O)Nc1nc(-c2ccc3c(c2)CCC(=O)N3Cc2cccnc2)cs1 (centres unmarked) with HCC827 (K-Ras wild type cell line) as test system.
**Result** 3

**Query** State IC50 on HCC827 (K-Ras wild type cell line). Entry: Cc1nn(-c2ccc(F)cc2)c(C)c1C(=O)Nc1nc(-c2ccc3c(c2)CCC(=O)N3)cs1
**Result** 13

---

Property: IC50; scope: individual compounds
biological target: wild type K-Ras (Homo sapiens); construct: expressed in transfected cells; host or cells: 293H cells; experiment: G-LISA Ras activation, 293H cells transfected with Ras wild-type, EGF stimulated; assay type: cell-based; settings: compound 1 hour, then 100 ng/ml EGF 2 minutes

Check out these entries, answers already filled in.
CCc1nc(C)c(C(=O)Nc2nc(-c3ccc4c(c3)CCC(=O)N4Cc3ccccn3)cs2)o1 [Compound 63] = > 25 µM
Cc1nc(C)c(C(=O)Nc2nc(-c3ccc4c(c3)CCC(=O)N4CC3CCOC3)cs2)o1 (centres unmarked) [Compound 67] = > 25 µM
Cc1nc(C2CCOC2)oc1C(=O)Nc1nc(-c2ccc3c(c2)CCC(=O)N3)cs1 (centres unmarked) [Compound 10] = > 25 µM
Cc1nn(C(C)(C)C)c(C)c1C(=O)Nc1nc(-c2ccc3c(c2)CCC(=O)N3)cs1 [Compound 57] = 30 µM
Cc1nc(C(C)C)sc1C(=O)Nc1nc(-c2ccc3c(c2)CCC(=O)N3Cc2cccnc2)cs1 [Compound 107] = 9.7 µM
CCc1nc(C)c(C(=O)Nc2nc(-c3ccc4c(c3)CCC(=O)N4Cc3cccnc3)cs2)o1 [Compound 64] = > 25 µM
Cc1nc(C2CC2)oc1C(=O)Nc1nc(-c2ccc3c(c2)CCC(=O)N3)cs1 [Compound 6] = 10.6 µM

Please find the next compound below.
**Query** // fetch IC50 given entry Cc1nn(C(C)C)c(C)c1C(=O)Nc1nc(-c2ccc3c(c2)CCC(=O)N3Cc2cccnc2)cs1 [Compound 117]
**Result** 6.7 µM

---

In this section we review reported pIC50 values for a set of compounds.
system: HCC827 (K-Ras wild type cell line); experiment: Viability assay (CellTiterBlue, 72 hr) HCC827; assay type: cell-based; conditions: Homo sapiens, GI50, CellTiterBlue, HCC827 K-Ras wild-type
pIC50: −log10 of the molar value.

// worked examples, pIC50 included
Cc1ncccc1C(=O)Nc1nc(-c2ccc3c(c2)CCC(=O)N3)cs1 = < 4.60
CCc1nc(C)c(C(=O)Nc2nc(-c3ccc4c(c3)CCC(=O)N4Cc3cccnc3)cs2)o1 = 5.00
Cc1nc(C2CCOC2)oc1C(=O)Nc1nc(-c2ccc3c(c2)CCC(=O)N3)cs1 (stereo not shown) = 4.64
Cc1nc(C)c(C(=O)Nc2nc(-c3ccc4c(c3)CCC(=O)N4Cc3cccc4ccccc34)cs2)o1 = < 4.60
Cc1nc(C2CC2)oc1C(=O)Nc1nc(-c2ccc3c(c2)CCC(=O)N3Cc2cccnc2)cs1 = < 4.60

**Query** Give reported pIC50 value for Cc1nc(C2CCC2)oc1C(=O)Nc1nc(-c2ccc3c(c2)CCC(=O)N3)cs1
**Result** < 4.60

**Query** Kindly indicate its recorded pIC50. Item: Cc1nc(C)c(C(=O)Nc2nc(-c3ccc4c(c3)CCC(=O)N4CCCN(C)C)cs2)o1
**Result** 5.30

**Query** Return pIC50 (reported value) for this compound: Cc1nn(C)cc1C(=O)Nc1nc(-c2ccc3c(c2)CCC(=O)N3Cc2cccnc2)cs1
**Result** 5.40

**Query** Answer with the recorded pIC50 for the compound listed here: Cc1nn(C)c(C)c1C(=O)Nc1nc(-c2ccc3c(c2)CCC(=O)N3)cs1
**Result** 5.15

**Query** Look up and report measured pIC50 for this entry: Cn1nc(C(F)F)cc1C(=O)Nc1nc(-c2ccc3c(c2)CCC(=O)N3)cs1
**Result** < 4.60

**Query** Query pIC50 for Cc1nc(C)c(C(=O)Nc2nc(-c3ccc4c(c3)CCC(=O)N4Cc3nnn[nH]3)cs2)o1
**Result** < 4.60

**Query** # return recorded pIC50 for input O=C1CCc2cc(-c3csc(NC(=O)c4ccnn4-c4ccccc4)n3)ccc2N1
**Result** < 4.60

**Query** Name the recorded pIC50 of the compound listed here: Cc1nc(C)c(C(=O)Nc2nc(-c3ccc4c(c3)CCC(=O)N4Cc3cccc([N+](=O)[O-])c3)cs2)o1
**Result** < 4.60

---

target: wild type K-Ras (Homo sapiens, UniProt P01116); construct: expressed in transfected cells; host or cells: 293H cells; assay: G-LISA Ras activation, 293H cells transfected with Ras wild-type, EGF stimulated; assay type: cell-based; conditions: compound 1 hour, then 100 ng/ml EGF 2 minutes
Sequence (P01116 whole entry): as the sequence (P01116 whole entry G12D) above, with D12G counted along it
Each entry below carries its reported IC50.
Just the number in µM, nothing appended.

CCCn1nc(C)c(C(=O)Nc2nc(-c3ccc4c(c3)CCC(=O)N4)cs2)c1C = 6.5
Cc1nc(C2CC2)oc1C(=O)Nc1nc(-c2ccc3c(c2)CCC(=O)N3CCc2ccccc2)cs1 = 8.5
Cc1nc(C)c(C(=O)Nc2nc(-c3ccc4c(c3)CCC(=O)N4CCN(C)C)cs2)o1 = 12.6
Cc1nc(C)c(C(=O)Nc2nc(-c3ccc4c(c3)CCC(=O)N4Cc3cccc4c3OCO4)cs2)o1 = 18.8
Cc1nn(C(C)C)cc1C(=O)Nc1nc(-c2ccc3c(c2)CCC(=O)N3)cs1 = 18.3
CCn1cc(C(=O)Nc2nc(-c3ccc4c(c3)CCC(=O)N4)cs2)c(C)n1 = 10.7

**Query** Check the records and state IC50 for Cc1nc(CNC(=O)OC(C)(C)C)sc1C(=O)Nc1nc(-c2ccc3c(c2)CCC(=O)N3)cs1
**Result** 19

**Query** Return reported IC50. Input compound: Cc1nc(C)c(C(=O)Nc2nc(-c3ccc4c(c3)CCC(=O)N4CC3CCCOC3)cs2)o1 (stereo not drawn)
**Result** 11.1

**Query** Fill in reported IC50 for this entry: COCCN1C(=O)CCc2cc(-c3csc(NC(=O)c4oc(C)nc4C)n3)ccc21
**Result** 15.4
